- System: GLP-1 receptor (human, UniProt P43220 24-463)
- Assay Info: cell-based or functional assay
No end group written: not given here.
Give measured EC50 (cAMP luciferase reporter) for each item. Keep answers brief.
Use nM as the unit, but write only the number.

Query block: Could you tell me which EC50 (cAMP luciferase reporter) is on file for HSQKTFTEDYSKYLDSRRAQDFVQWLMNT (not fully specified; also: further groups not given here) [Peptide 16] ?
Result block: 121

Query block: Could you tell me which EC50 (cAMP luciferase reporter) is on file for KHSQETFTSDYSKYLDSRRAQDFVQWLMNT (not fully specified; amidated unless FIG. 1 shows OH; lactam, D-residues, Orn/Dab only as drawn in FIG. 1) [Peptide 14] ?
Result block: 33

Query block: Could you tell me which EC50 (cAMP luciferase reporter) is on file for KAHSEGTFTSDYSKYLDSRRAQDFVQWLMNT (not fully specified; also: further groups not given here) [Peptide 12] ?
Result block: 41.7

Query block: Could you tell me which EC50 (cAMP luciferase reporter) is on file for KAHSEGTFTSDYSKYLDSRRAQDFVQWLMNT (not fully specified; also: further groups not given here) [Peptide 13] ?
Result block: 14.3

Query block: Could you tell me which EC50 (cAMP luciferase reporter) is on file for HSQGTFTSDYSKYLDKRRAEDFVQWLMNT (not fully specified; also: further groups not given here) [Peptide 3] ?
Result block: 1.15

Query block: Could you tell me which EC50 (cAMP luciferase reporter) is on file for KHSQETFTSDYSKYLDSRRAQDFVQWLMNT (not fully specified; amidated unless FIG. 1 shows OH; lactam, D-residues, Orn/Dab only as drawn in FIG. 1) [Peptide 15] ?
Result block: 73.4

Query block: Could you tell me which EC50 (cAMP luciferase reporter) is on file for HSQKTFTEDYSKYLDSRRAQDFVQWLMNT (not fully specified; also: further groups not given here) [Peptide 17] ?
Result block: 148

Query block: Could you tell me which EC50 (cAMP luciferase reporter) is on file for HSQGTFTSDYSKYLDSKRAQEFVQWLMNT-NH2 [Peptide 1] ?
Result block: 0.13

All figures here come from patent US20120288511A1.
